Quick reference for solubility among some compounds
experiment: Aqueous solubilities were determined by dissolving an crystalline hemisulfate and […] salts, respectively in water and adding acetate to pH 5.0, concentrations are expressed in free base equivalents; format: ADME; conditions: water adjusted with acetate, read-out: S
Output spec: scalar in µg/mL, unitless text.

Input Smiles	Display Unit	solubility
Cc1ccccc1N1CCN(S(=O)(=O)C[C@]23CCC(C[C@@H]2NC(=O)[C@H](CCS(C)(=O)=O)NC2CCNCC2)C3(C)C)CC1	µg/mL	3000

Problem: Any idea what its solubility is? The compound is CCN(CC)[C@@H](CCS(C)(=O)=O)C(=O)N[C@H]1CC2CC[C@]1(CS(=O)(=O)N1CCN(c3ccccc3C)CC1)C2(C)C
Result: 230

Problem: What does the record list as solubility for Cc1ccccc1N1CCN(S(=O)(=O)C[C@]23CCC(C[C@@H]2NC(=O)[C@@H](N)CCS(C)(=O)=O)C3(C)C)CC1 ?
Result: 3700

Problem: # input compound: Cc1ccccc1N1CCN(S(=O)(=O)C[C@]23CCC(C[C@@H]2NC(=O)[C@H](CCS(C)(=O)=O)N(C)C)C3(C)C)CC1 ; wanted: its solubility
Result: 3100

Problem: Suppose we examine the compound Cc1ccccc1N1CCN(S(=O)(=O)C[C@]23CCC(C[C@@H]2NC(=O)[C@H](CCS(C)(=O)=O)NC2CCOCC2)C3(C)C)CC1 ; what solubility value has been reported?
Result: 360

###

biological target: UniProt P30560
Sequence (P30560 whole entry): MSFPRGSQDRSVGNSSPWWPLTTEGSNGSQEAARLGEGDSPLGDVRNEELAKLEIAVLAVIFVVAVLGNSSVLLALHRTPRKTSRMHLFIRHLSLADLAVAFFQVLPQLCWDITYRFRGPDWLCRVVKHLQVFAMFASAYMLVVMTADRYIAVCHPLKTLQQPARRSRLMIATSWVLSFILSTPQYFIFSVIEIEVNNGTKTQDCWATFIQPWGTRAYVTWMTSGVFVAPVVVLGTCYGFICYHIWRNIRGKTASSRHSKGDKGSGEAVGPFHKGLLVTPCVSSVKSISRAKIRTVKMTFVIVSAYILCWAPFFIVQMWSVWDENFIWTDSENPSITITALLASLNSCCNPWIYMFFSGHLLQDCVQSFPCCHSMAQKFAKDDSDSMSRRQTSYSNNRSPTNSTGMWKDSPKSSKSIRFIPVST
The threshold is 400 nM. Values of IC50 beneath it are tagged Yes; values meeting or exceeding it are tagged No.

Input Smiles	Assigned Label
Cc1ccccc1N1CCN(S(=O)(=O)C[C@]23CCC(C[C@@H]2NC(=O)[C@H](CCS(C)(=O)=O)NC2CCS(=O)(=O)CC2)C3(C)C)CC1	No
Cc1ccccc1N1CCN(S(=O)(=O)C[C@]23CCC(C[C@@H]2NC(=O)[C@H](CCS(C)(=O)=O)N(C)C)C3(C)C)CC1	Yes

Problem: Criterion: IC50 strictly below 400 nM. Is it met by CN[C@@H](CCS(C)(=O)=O)C(=O)N[C@H]1CC2CC[C@]1(CS(=O)(=O)N1CCN(c3ccccc3C)CC1)C2(C)C ?
Result: Yes

Problem: Take the compound CC1(C)C2CC[C@@]1(CS(=O)(=O)N1CCC3(CCc4ccccc43)CC1)[C@@H](NC(=O)[C@@H](N)CCC(N)=O)C2 and say whether its IC50 is less than 400 nM.
Result: No

Problem: Strictly below 400 nM: is that where IC50 of Cc1ccccc1N1CCN(S(=O)(=O)C[C@]23CCC(C[C@@H]2NC(=O)[C@@H](N)CCS(C)(=O)=O)C3(C)C)CC1 sits?
Result: Yes

###

experiment: Aqueous solubilities were determined by dissolving an crystalline hemisulfate and […] salts, respectively in water and adding acetate to pH 5.0, concentrations are expressed in free base equivalents.; assay type: ADME; details: water adjusted with acetate, read-out: S
Test Readout: solubility
Just so you know, I need the unit written after the number.

Input Smiles	solubility
Cc1ccccc1N1CCN(S(=O)(=O)C[C@]23CCC(C[C@@H]2NC(=O)[C@H](CCS(C)(=O)=O)N(CCO)CCO)C3(C)C)CC1	190 µg/mL

Problem: State the recorded solubility for this entry: CC1(C)C2CC[C@@]1(CS(=O)(=O)N1CCC3(CCc4ccccc43)CC1)[C@@H](NC(=O)[C@@H](N)CCS(C)(=O)=O)C2
Result: 1500 µg/mL
